Entries and their fold change (FC)
Target: ATP-dependent translocase ABCB1 (Homo sapiens, UniProt P08183)
Sequence (P08183 whole entry): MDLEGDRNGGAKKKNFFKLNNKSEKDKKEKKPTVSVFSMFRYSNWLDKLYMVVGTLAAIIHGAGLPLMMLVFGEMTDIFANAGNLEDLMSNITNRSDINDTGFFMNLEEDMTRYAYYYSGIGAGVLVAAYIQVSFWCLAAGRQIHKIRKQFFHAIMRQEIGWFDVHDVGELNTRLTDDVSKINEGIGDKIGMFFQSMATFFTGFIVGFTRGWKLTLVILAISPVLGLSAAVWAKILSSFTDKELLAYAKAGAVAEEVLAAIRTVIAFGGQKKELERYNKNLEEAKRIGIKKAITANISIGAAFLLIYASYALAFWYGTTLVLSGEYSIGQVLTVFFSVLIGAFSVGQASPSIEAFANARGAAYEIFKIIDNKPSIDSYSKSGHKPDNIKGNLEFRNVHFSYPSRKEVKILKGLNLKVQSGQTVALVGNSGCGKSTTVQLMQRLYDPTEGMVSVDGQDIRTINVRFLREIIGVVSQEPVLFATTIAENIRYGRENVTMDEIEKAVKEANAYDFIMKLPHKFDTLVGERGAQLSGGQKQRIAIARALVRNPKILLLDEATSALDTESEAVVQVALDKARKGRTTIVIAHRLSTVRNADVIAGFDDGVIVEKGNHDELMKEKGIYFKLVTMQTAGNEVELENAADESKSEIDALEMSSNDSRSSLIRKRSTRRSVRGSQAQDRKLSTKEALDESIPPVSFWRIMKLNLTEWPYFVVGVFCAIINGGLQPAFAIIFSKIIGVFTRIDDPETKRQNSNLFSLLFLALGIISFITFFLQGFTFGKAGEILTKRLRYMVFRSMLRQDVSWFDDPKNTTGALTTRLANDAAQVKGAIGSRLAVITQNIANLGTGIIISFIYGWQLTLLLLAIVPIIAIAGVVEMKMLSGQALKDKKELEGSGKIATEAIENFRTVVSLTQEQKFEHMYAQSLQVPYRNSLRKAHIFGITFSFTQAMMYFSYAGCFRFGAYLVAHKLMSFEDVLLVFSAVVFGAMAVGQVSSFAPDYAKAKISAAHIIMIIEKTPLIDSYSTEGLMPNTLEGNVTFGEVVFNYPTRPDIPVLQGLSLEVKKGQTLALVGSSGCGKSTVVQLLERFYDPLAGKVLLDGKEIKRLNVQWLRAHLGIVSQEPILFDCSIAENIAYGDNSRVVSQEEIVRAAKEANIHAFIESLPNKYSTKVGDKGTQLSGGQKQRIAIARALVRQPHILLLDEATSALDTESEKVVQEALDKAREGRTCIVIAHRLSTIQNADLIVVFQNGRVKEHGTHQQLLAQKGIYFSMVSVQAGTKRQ
Assay: Inhibition of ABCB1 in human SW620/AD300 cells assessed as potentiation of paclitaxel-induced cytotoxicity by measuring fold reduction in paclitaxel IC50 at 2 uM after 72 hrs by MTT assay relative to paclitaxel alone
Type: cell-based
measured parameter: fold change (FC)

* COc1ccc(Nc2nc(SCC(=O)NC(=O)Nc3ccccn3)nc(-c3ccc(C(C)C)cc3)c2C#N)cc1 | 2.17
* Cc1ccc(Nc2nc(SCc3cn(Cc4ccccc4Cl)nn3)nc(-c3ccc(Br)cc3)c2C#N)cc1 | 3.39
* N#Cc1c(Nc2cccc(C(F)(F)F)c2)nc(SCc2cn(CC(=O)NC(=O)Nc3ccccn3)nn2)nc1-c1ccc(Br)cc1 | 2.4
* COc1cc(-c2nc(SCC(=O)Nc3ccccn3)nc(Nc3cccc(Cl)c3)c2C#N)cc(OC)c1OC | 5.51
* CC(C)c1ccc(-c2nc(SCc3cn(CC(=O)NC(=O)Nc4ccccn4)nn3)nc(Nc3ccccc3F)c2C#N)cc1 | 2.74
* CC(C)c1ccc(-c2nc(SCc3cn(CC(=O)NC(=O)Nc4ccccn4)nn3)nc(Nc3cccc([N+](=O)[O-])c3)c2C#N)cc1 | 2.99
* COc1cc(-c2nc(SCC(=O)NC(=O)Nc3ccccn3)nc(Nc3ccc(Cl)cc3)c2C#N)cc(OC)c1OC | 12.61
* Cc1ccc(-c2nc(SCC(=O)NC(=O)Nc3ccccn3)nc(Nc3cccc(C(F)(F)F)c3)c2C#N)cc1 | 6.06
* COc1cc(-c2nc(SCc3ccccc3)nc(Nc3ccc(Cl)cc3)c2C#N)cc(OC)c1OC | 1.24
* Cc1ccc(-c2nc(SCc3cn(CC(=O)NC(=O)Nc4ccccn4)nn3)nc(Nc3ccc(C(C)C)cc3)c2C#N)cc1 | 1.18
* Cc1ccc(Nc2nc(SCc3cn(Cc4ccccc4Cl)nn3)nc(-c3ccc(C(C)C)cc3)c2C#N)cc1 | 46
* CC(C)c1ccc(-c2nc(SCC(=O)NC(=O)Nc3ccccn3)nc(Nc3cccc(C(F)(F)F)c3)c2C#N)cc1 | 37.04
* COc1cc(-c2nc(SCc3cn(CC(=O)NC(=O)Nc4ccccn4)nn3)nc(Nc3ccc(C)cc3)c2C#N)cc(OC)c1OC | 6.23
* COc1ccc(Nc2nc(SCc3cn(CC(=O)NC(=O)Nc4ccccn4)nn3)nc(-c3ccc(C)cc3)c2C#N)cc1 | 1.18
* COc1ccccc1Nc1nc(SCC(=O)NC(=O)Nc2ccccn2)nc(-c2ccc(F)c(F)c2)c1C#N | 13.42
* COc1cc(-c2nc(SCC(=O)NC(=O)Nc3ccccn3)nc(Nc3ccc(Br)cc3)c2C#N)cc(OC)c1OC | 190.27

----------
Entries and their fold change (FC)
Biological target: ATP-dependent translocase ABCB1 (Homo sapiens, UniProt P08183)
Assay: Inhibition of ABCB1 in human SW620/AD300 cells assessed as potentiation of paclitaxel-induced cytotoxicity by measuring fold reduction in paclitaxel IC50 at 2 uM after 72 hrs by MTT assay relative to paclitaxel alone
Assay type: cell-based
measured parameter: fold change (FC)

• CC(C)c1ccc(Nc2nc(SCc3cn(CC(=O)NC(=O)Nc4ccccn4)nn3)nc(-c3ccc(C(C)C)cc3)c2C#N)cc1 = 9.49
• COc1cc(-c2nc(SCC(=O)NC(=O)Nc3ccccc3)nc(Nc3cccc([N+](=O)[O-])c3)c2C#N)cc(OC)c1OC = 21.04
• COc1ccccc1Nc1nc(SCC(=O)NC(=O)Nc2ccccn2)nc(-c2cc(OC)c(OC)c(OC)c2)c1C#N = 8.67
• CC(C)c1ccc(-c2nc(SCc3cn(CC(=O)NC(=O)Nc4ccccn4)nn3)nc(Nc3ccc(F)cc3)c2C#N)cc1 = 2.11

----------
Target: ATP-dependent translocase ABCB1 (Homo sapiens, UniProt P08183)
Assay: Inhibition of ABCB1 in human SW620/AD300 cells assessed as potentiation of paclitaxel-induced cytotoxicity by measuring fold reduction in paclitaxel IC50 at 2 uM after 72 hrs by MTT assay relative to paclitaxel alone
Assay type: cell-based
measured parameter: fold change (FC)

* N#Cc1c(Nc2ccc(Cl)cc2)nc(SCC(=O)NC(=O)Nc2ccccn2)nc1-c1ccc(F)c(F)c1 | 3.5
* COc1cc(-c2nc(SCc3cn(CC(=O)NC(=O)Nc4ccccn4)nn3)nc(Nc3ccc(C(C)C)cc3)c2C#N)cc(OC)c1OC | 13.16
* COc1cc(-c2nc(SCc3cn(CC(=O)NC(=O)Nc4ccccn4)nn3)nc(Nc3ccc(Cl)cc3)c2C#N)cc(OC)c1OC | 1.71
* COc1cc(-c2nc(SCc3cn(CC(=O)NC(=O)Nc4ccccn4)nn3)nc(Nc3cccc(C(F)(F)F)c3)c2C#N)cc(OC)c1OC | 1.35

----------
Test: Cytotoxicity against human SW620 cells assessed as survival at 2 uM after 72 hrs by MTT assay relative to control
Type: cell-based, SW-620
Settings: read-out: Survival
Entries and their viability at 72 h, 2 µM
measured parameter: viability at 72 h, 2 µM

* Cc1ccc(-c2nc(SCC(=O)NC(=O)Nc3ccccn3)nc(Nc3cccc(C(F)(F)F)c3)c2C#N)cc1 | > 90%
* CC(C)c1ccc(-c2nc(SCc3cn(CC(=O)NC(=O)Nc4ccccn4)nn3)nc(Nc3cccc([N+](=O)[O-])c3)c2C#N)cc1 | > 90%
* CC(C)c1ccc(-c2nc(SCC(=O)NC(=O)Nc3ccccn3)nc(Nc3cccc(C(F)(F)F)c3)c2C#N)cc1 | > 90%
* COc1cc(-c2nc(SCc3cn(CC(=O)NC(=O)Nc4ccccn4)nn3)nc(Nc3cccc(Cl)c3)c2C#N)cc(OC)c1OC | > 90%

----------
Target: UniProtKB P08183
Test: Stimulation of human ABCB1 ATPase activity expressed in high-five insect cell membrane vesicles assessed as compound concentration required for 50% stimulation by colorimetric analysis
Details: read-out: Activity
measured parameter: EC50

• COc1cc(-c2nc(SCC(=O)NC(=O)Nc3ccccn3)nc(Nc3cccc(Cl)c3)c2C#N)cc(OC)c1OC = 970 nM

----------
Molecular target: ATP-dependent translocase ABCB1 (Homo sapiens, UniProt P08183)
Assay: Inhibition of ABCB1 in human SW620/AD300 cells assessed as potentiation of paclitaxel-induced cytotoxicity by measuring fold reduction in paclitaxel IC50 at 2 uM after 72 hrs by MTT assay relative to paclitaxel alone
Type: cell-based
Entries and their fold change (FC)
measured parameter: fold change (FC)

* COc1ccccc1Nc1nc(SCc2cn(CC(=O)NC(=O)Nc3ccccn3)nn2)nc(-c2ccc(C(C)C)cc2)c1C#N | 10.18
* N#Cc1c(Nc2cccc(Cl)c2)nc(SCC(=O)NC(=O)Nc2ccccn2)nc1-c1ccc(F)c(F)c1 | 4.37
* CC(C)c1ccc(-c2nc(SCc3cn(CC(=O)NC(=O)Nc4ccccn4)nn3)nc(Nc3ccccc3O)c2C#N)cc1 | 13.64
* Cc1ccccc1Nc1nc(SCc2cn(CC(=O)NC(=O)Nc3ccccn3)nn2)nc(-c2ccc(C(C)C)cc2)c1C#N | 4.69
* COc1cc(-c2nc(SCC(=O)NC(=O)Nc3ccccc3)nc(Nc3ccc(C(C)C)cc3)c2C#N)cc(OC)c1OC | 25.07
* CC(C)c1ccc(-c2nc(SCc3cn(CC(=O)NC(=O)Nc4ccccn4)nn3)nc(Nc3ccc(Cl)cc3)c2C#N)cc1 | 1.66
* COc1cc(-c2nc(SCC(=O)NC(=O)Nc3ccccc3)nc(Nc3cccc(Cl)c3)c2C#N)cc(OC)c1OC | 261.63
* N#Cc1c(Nc2ccccc2Cl)nc(SCC(=O)NC(=O)Nc2ccccn2)nc1-c1ccc(F)c(F)c1 | 14.24
* CC(C)c1ccc(-c2nc(SCc3cn(CC(=O)NC(=O)Nc4ccccn4)nn3)nc(Nc3cccc(Cl)c3)c2C#N)cc1 | 2.71
* Cc1ccc(Nc2nc(SCc3cn(CC(=O)NC(=O)Nc4ccccn4)nn3)nc(-c3ccc(C(C)C)cc3)c2C#N)cc1 | 6.86
* COc1cc(-c2nc(SCC(=O)NC(=O)Nc3ccccn3)nc(Nc3cccc([N+](=O)[O-])c3)c2C#N)cc(OC)c1OC | 82.08
* Cc1ccc(Nc2nc(SCc3cn(CC(=O)NC(=O)Nc4ccccn4)nn3)nc(-c3ccc(Br)cc3)c2C#N)cc1 | 1.41
* CC(C)c1ccc(-c2nc(SCc3cn(CC(=O)NC(=O)Nc4ccccn4)nn3)nc(Nc3ccccc3)c2C#N)cc1 | 1.65
* Cc1ccc(-c2nc(SCc3cn(CC(=O)NC(=O)Nc4ccccn4)nn3)nc(Nc3cccc(C(F)(F)F)c3)c2C#N)cc1 | 1.88
* COc1cc(-c2nc(SCC(=O)NC(=O)Nc3ccccn3)nc(Nc3cccc(C(F)(F)F)c3)c2C#N)cc(OC)c1OC | 58.14
* N#Cc1c(Nc2cccc(C(F)(F)F)c2)nc(SCC(=O)NC(=O)Nc2ccccn2)nc1-c1ccc(Cl)cc1 | 2.86
* CC(C)c1ccc(-c2nc(SCc3cn(CC(=O)NC(=O)Nc4ccccn4)nn3)nc(Nc3ccccc3Cl)c2C#N)cc1 | 4.75
* COc1cc(-c2nc(SCc3ccccc3)nc(Nc3cccc(Cl)c3)c2C#N)cc(OC)c1OC | 1.05
* COc1ccccc1Nc1nc(SCC(=O)NC(=O)Nc2ccccc2)nc(-c2cc(OC)c(OC)c(OC)c2)c1C#N | 3.66
* COc1ccccc1Nc1nc(SCc2cn(CC(=O)NC(=O)Nc3ccccn3)nn2)nc(-c2ccc(C)cc2)c1C#N | 10.71
* N#Cc1c(Nc2ccc(Cl)cc2)nc(SCC(=O)NC(=O)Nc2ccccn2)nc1-c1ccc(Cl)cc1 | 2.32
* Cc1ccc(Nc2nc(SCc3cn(CC(=O)NC(=O)Nc4ccccn4)nn3)nc(-c3ccc(C)cc3)c2C#N)cc1 | 17.37
* COc1ccc(Nc2nc(SCc3cn(CC(=O)NC(=O)Nc4ccccn4)nn3)nc(-c3ccc(C(C)C)cc3)c2C#N)cc1 | 6.3
* COc1cc(-c2nc(SCC(=O)NC(=O)Nc3ccccn3)nc(Nc3cccc(Cl)c3)c2C#N)cc(OC)c1OC | 837.2
* Cc1ccc(Nc2nc(SCC(=O)NC(=O)Nc3ccccn3)nc(-c3ccccc3)c2C#N)cc1 | 1.67
* Cc1ccc(-c2nc(SCc3cn(CC(=O)NC(=O)Nc4ccccn4)nn3)nc(Nc3cccc(Cl)c3)c2C#N)cc1 | 13.42
